- System: Human papillomavirus type 1a E7 protein (residues 1-88)
- method: HPV1a E7 small-molecule binders, primary screen, biochemical, small-molecule microarray, residues 1-88, 635 nm (AID 1129)
- conditionDetails: small-molecule microarray binding, fluorescence 635 nm; higher = more signal
Kindly return Y if reported composite z-score is no lower than -0.1; return N if it is lower.

Does COc1ccc([Si](C)(C)[C@H]2[C@H](CCO)O[C@@]3(C(=O)N(Cc4ccc(N5C(=O)c6cccc7cccc5c67)cc4)c4ccccc43)[C@@H]2C)cc1 have a reported composite z-score of at least -0.1?
N

Does CC(C)C(CO)N1C(=O)[C@@H]2[C@H]3C(=O)OCC=C[C@H]3OC23C=CCN(Cc2ccccc2)C(=O)[C@@H]13 (some centres not stated) have a reported composite z-score of at least -0.1?
N

Does [N-]=[N+]=NCc1ccccc1C[C@]1(C(=O)NCc2ccccc2)N=C(c2ccc(OCCCO)cc2)O[C@H]1c1ccccc1 have a reported composite z-score of at least -0.1?
Y

Does C=C(C(=O)CC[C@H](OC(C)=O)c1ccc(CO)o1)C(C)C have a reported composite z-score of at least -0.1?
Y

Does C=CCC(OC(C)=O)[C@@H]1[C@@H](N(Cc2cc3ccccc3o2)C(=O)c2ccc(-c3ccccc3)cc2)c2cc(OCCCO)ccc2N1C(=O)c1ccc(-c2ccccc2)cc1 (some centres not stated) have a reported composite z-score of at least -0.1?
N

Does CC(=O)NCCCC[C@@H]1NC(=O)[C@@H]2C[C@H](C(=O)O)[C@H](c3cccc(OCCO)c3)N2C1=O have a reported composite z-score of at least -0.1?
Y

Does COCCCNC(=O)[C@@]1(Cc2ccccc2CN=[N+]=[N-])COC(c2ccc(OCCCO)cc2)=N1 have a reported composite z-score of at least -0.1?
Y
